Test system: TGW (Neuroblastoma)
assay overview: combination Emax (second highest fraction inhibited in the dose matrix, 72 h); higher = more inhibition; extreme values may be limits of the assay
A collection of compounds and their measured combination Emax
Form rule: numeric answer, no unit written next to it.

CC1(C)CCC(CN2CCN(c3ccc(C(=O)NS(=O)(=O)c4ccc(NCC5CCOCC5)c([N+](=O)[O-])c4)c(Oc4cnc5[nH]ccc5c4)c3)CC2)=C(c2ccc(Cl)cc2)C1 [Venetoclax] + Cc1cc2ncnn2cc1Nc1ncc2c(n1)n(C1CCOCC1)c(=O)n2C [AZD7648] (first compound max 1 µM, 7x7, partner max 10 µM) : 0.393
C=CCn1c(=O)c2cnc(Nc3ccc(N4CCN(C)CC4)cc3)nc2n1-c1cccc(C(C)(C)O)n1 [AZD1775] + C1CN(CCC1(C(=O)N[C@@H](CCO)C2=CC=C(C=C2)Cl)N)C3=NC=NC4=C3C=CN4 [Capivasertib] (first compound max 3 µM, partner max 3 µM) : 0.889

## Input Identify the measured combination Emax of Cc1c2c(nn1C)CSCc1cc(n(C)n1)CSc1cc(c3ccccc3c1)OCCCc1c(C(=O)O)n(C)c3c-2c(Cl)ccc13 [AZD5991] + C[C@@H](Nc1cc(F)cc(F)c1)c1cc(C(=O)N(C)C)cc2c(=O)cc(N3CCOCC3)oc12 [AZD8186] (first compound max 1 µM, 7x7, partner max 3 µM) for TGW (Neuroblastoma).
## Output 0.347

----------
A collection of compounds and their measured combination Emax
Test system: YH-13 (Glioblastoma)
assay overview: combination Emax (second highest fraction inhibited in the dose matrix, 72 h); higher = more inhibition; extreme values may be limits of the assay
Form rule: numeric answer, no unit written next to it.

Worked cases, combination Emax given:
Cc1c2c(nn1C)CSCc1cc(n(C)n1)CSc1cc(c3ccccc3c1)OCCCc1c(C(=O)O)n(C)c3c-2c(Cl)ccc13 [AZD5991] + CS(=O)(=O)CCNCc1ccc(-c2ccc3ncnc(Nc4ccc(OCc5cccc(F)c5)c(Cl)c4)c3c2)o1 [Lapatinib] (first compound max 1 µM, 7x7, partner max 10 µM) : 0.186
Cc1c2c(nn1C)CSCc1cc(n(C)n1)CSc1cc(c3ccccc3c1)OCCCc1c(C(=O)O)n(C)c3c-2c(Cl)ccc13 [AZD5991] + Cc1cc2ncnn2cc1Nc1ncc2c(n1)n(C1CCOCC1)c(=O)n2C [AZD7648] (first compound max 1 µM, 7x7, partner max 10 µM) : 0.351
CC1(C)CCC(CN2CCN(c3ccc(C(=O)NS(=O)(=O)c4ccc(NCC5CCOCC5)c([N+](=O)[O-])c4)c(Oc4cnc5[nH]ccc5c4)c3)CC2)=C(c2ccc(Cl)cc2)C1 [Venetoclax] + C[C@@H]1COCCN1C2=NC(=NC(=C2)C3(CC3)[S@](=N)(=O)C)C4=C5C=CNC5=NC=C4 [AZD6738] (first compound max 1 µM, 7x7, partner max 10 µM) : 0.5
CN(CCO)CC[C@H](CSc1ccccc1)Nc1ccc(S(=O)(=O)NC(=O)c2ccc(N3CCC([C@@H](O)c4ccccc4-c4ccc(Cl)cc4)CC3)cc2)cc1S(=O)(=O)C(F)(F)F [AZD4320] + CC(=O)O[C@H]1C(=O)[C@@]2(C)[C@H]([C@H](OC(=O)c3ccccc3)[C@]3(O)C[C@H](OC(=O)[C@H](O)[C@@H](NC(=O)c4ccccc4)c4ccccc4)C(C)=C1C3(C)C)[C@]1(OC(C)=O)CO[C@@H]1C[C@@H]2O [Paclitaxel] (first compound max 1 µM, 7x7, partner max 3 µM) : 1
Cc1c2c(nn1C)CSCc1cc(n(C)n1)CSc1cc(c3ccccc3c1)OCCCc1c(C(=O)O)n(C)c3c-2c(Cl)ccc13 [AZD5991] + CC1(C)CCC(CN2CCN(c3ccc(C(=O)NS(=O)(=O)c4ccc(NCC5CCOCC5)c([N+](=O)[O-])c4)c(Oc4cnc5[nH]ccc5c4)c3)CC2)=C(c2ccc(Cl)cc2)C1 [Venetoclax] (first compound max 1 µM, 7x7, partner max 1 µM) : 0.145

## Input Fill blank: measured combination Emax of the compound COc1nnc2ccc(N3CCC(c4ccc(OCCN5CCN(C)C(=O)[C@H]5C)cc4)CC3)nn12 [AZD5153] + C=CCn1c(=O)c2cnc(Nc3ccc(N4CCN(C)CC4)cc3)nc2n1-c1cccc(C(C)(C)O)n1 [AZD1775] (first compound max 1 µM, partner max 1 µM) is ____.
## Output 0.592

## Input Fill blank: measured combination Emax of the compound CN(C)CCCOc1ccc(-c2ccc3ncc4c(c3c2)n(C2CCOCC2)c(=O)n4C)cn1 [AZD0156] + CCN(CCO)CCCOc1ccc2c(Nc3cc(CC(=O)Nc4cccc(F)c4)[nH]n3)ncnc2c1 [AZD2811] (first compound max 1 µM, 7x7, partner max 1 µM) is ____.
## Output 0.348

## Input Fill blank: measured combination Emax of the compound Cc1c2c(nn1C)CSCc1cc(n(C)n1)CSc1cc(c3ccccc3c1)OCCCc1c(C(=O)O)n(C)c3c-2c(Cl)ccc13 [AZD5991] + CC(=O)O[C@H]1C(=O)[C@@]2(C)[C@H]([C@H](OC(=O)c3ccccc3)[C@]3(O)C[C@H](OC(=O)[C@H](O)[C@@H](NC(=O)c4ccccc4)c4ccccc4)C(C)=C1C3(C)C)[C@]1(OC(C)=O)CO[C@@H]1C[C@@H]2O [Paclitaxel] (first compound max 1 µM, 7x7, partner max 3 µM) is ____.
## Output 0.994

## Input Fill blank: measured combination Emax of the compound CC1(C)CCC(CN2CCN(c3ccc(C(=O)NS(=O)(=O)c4ccc(NCC5CCOCC5)c([N+](=O)[O-])c4)c(Oc4cnc5[nH]ccc5c4)c3)CC2)=C(c2ccc(Cl)cc2)C1 [Venetoclax] + C[C@@H](Nc1cc(F)cc(F)c1)c1cc(C(=O)N(C)C)cc2c(=O)cc(N3CCOCC3)oc12 [AZD8186] (first compound max 1 µM, 7x7, partner max 3 µM) is ____.
## Output 0.441

## Input Fill blank: measured combination Emax of the compound CC1(C)CCC(CN2CCN(c3ccc(C(=O)NS(=O)(=O)c4ccc(NCC5CCOCC5)c([N+](=O)[O-])c4)c(Oc4cnc5[nH]ccc5c4)c3)CC2)=C(c2ccc(Cl)cc2)C1 [Venetoclax] + Cc1cc2ncnn2cc1Nc1ncc2c(n1)n(C1CCOCC1)c(=O)n2C [AZD7648] (first compound max 1 µM, 7x7, partner max 10 µM) is ____.
## Output 0.3

## Input Fill blank: measured combination Emax of the compound CC1(C)CCC(CN2CCN(c3ccc(C(=O)NS(=O)(=O)c4ccc(NCC5CCOCC5)c([N+](=O)[O-])c4)c(Oc4cnc5[nH]ccc5c4)c3)CC2)=C(c2ccc(Cl)cc2)C1 [Venetoclax] + CS(=O)(=O)CCNCc1ccc(-c2ccc3ncnc(Nc4ccc(OCc5cccc(F)c5)c(Cl)c4)c3c2)o1 [Lapatinib] (first compound max 1 µM, 7x7, partner max 10 µM) is ____.
## Output 0.0901

----------
Test system: Caov-4 (Ovarian Carcinoma);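 note: after 72 h of two-drug dosing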
assay overview: Bliss excess, mean over the matrix (fraction); higher = more synergy
reported endpoint: Bliss excess
Form rule: numeric answer, no unit written next to it.

Cc1cc2ncnn2cc1Nc1ncc2c(n1)n(C1CCOCC1)c(=O)n2C [AZD7648] + CN(C)CCCOc1ccc(-c2ccc3ncc4c(c3c2)n(C2CCOCC2)c(=O)n4C)cn1 [AZD0156] (first compound max 10 µM, 7x7, partner max 1 µM) : 0.0511
COc1nnc2ccc(N3CCC(c4ccc(OCCN5CCN(C)C(=O)[C@H]5C)cc4)CC3)nn12 [AZD5153] + Cc1c2c(nn1C)CSCc1cc(n(C)n1)CSc1cc(c3ccccc3c1)OCCCc1c(C(=O)O)n(C)c3c-2c(Cl)ccc13 [AZD5991] (first compound max 1 µM, 7x7, partner max 1 µM) : 0.0265
CN(CCO)CC[C@H](CSc1ccccc1)Nc1ccc(S(=O)(=O)NC(=O)c2ccc(N3CCC([C@@H](O)c4ccccc4-c4ccc(Cl)cc4)CC3)cc2)cc1S(=O)(=O)C(F)(F)F [AZD4320] + CC(=O)O[C@H]1C(=O)[C@@]2(C)[C@H]([C@H](OC(=O)c3ccccc3)[C@]3(O)C[C@H](OC(=O)[C@H](O)[C@@H](NC(=O)c4ccccc4)c4ccccc4)C(C)=C1C3(C)C)[C@]1(OC(C)=O)CO[C@@H]1C[C@@H]2O [Paclitaxel] (first compound max 1 µM, 7x7, partner max 3 µM) : 0.0863
CC1(C)CCC(CN2CCN(c3ccc(C(=O)NS(=O)(=O)c4ccc(NCC5CCOCC5)c([N+](=O)[O-])c4)c(Oc4cnc5[nH]ccc5c4)c3)CC2)=C(c2ccc(Cl)cc2)C1 [Venetoclax] + CCN(CCO)CCCOc1ccc2c(Nc3cc(CC(=O)Nc4cccc(F)c4)[nH]n3)ncnc2c1 [AZD2811] (first compound max 1 µM, 7x7, partner max 1 µM) : -0.0091
CC1(C)CCC(CN2CCN(c3ccc(C(=O)NS(=O)(=O)c4ccc(NCC5CCOCC5)c([N+](=O)[O-])c4)c(Oc4cnc5[nH]ccc5c4)c3)CC2)=C(c2ccc(Cl)cc2)C1 [Venetoclax] + CS(=O)(=O)CCNCc1ccc(-c2ccc3ncnc(Nc4ccc(OCc5cccc(F)c5)c(Cl)c4)c3c2)o1 [Lapatinib] (first compound max 1 µM, 7x7, partner max 10 µM) : -0.0353

# next molecule below
## Input Identify the measured Bliss excess of COc1cccc(OCCCN)c1-c1cc(Nc2cnc(C#N)cn2)n[nH]1 [Prexasertib] + Cc1cc2ncnn2cc1Nc1ncc2c(n1)n(C1CCOCC1)c(=O)n2C [AZD7648] (first compound max 1 µM, 7x7, partner max 10 µM) for Caov-4 (Ovarian Carcinoma).
## Output -0.0361
